Reference for the values: paper PMC5540273

# reported %Inh; entries follow
Tested on: PRKCE
measurement-parameters: concentration: 1 μM, replicates: in singlicate; n = 1;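 note: KINOMEscan kinase panel screen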
measured-metric: %Inh (%)

compound="CSc1cccc2c(-c3ccncn3)c(-c3ccc(F)cc3)nn12 [GW514786]" reported=11
compound="Nc1ncc(-c2ccc3nccc(-c4ccncc4)c3c2)cc1S(=O)(=O)N1CCOCC1 [GSK1627798]" reported=9
compound=COc1cccc(C(=O)Nc2cccc(Oc3ccc4nc(NC(=O)C5CC5)cn4n3)c2)c1 reported=0
compound="Nc1ncnc2c1nc(-c1ccccc1)n2-c1ccccc1 [SKF-97293]" reported=35
compound="COc1cccc(-c2ccc3c(NC(=O)C4CC4)n[nH]c3n2)c1 [SB-710903]" reported=23
compound="O=C(Nc1cccc(-c2nn3ncccc3c2-c2ccnc(Nc3ccccc3)n2)c1)c1c(F)cccc1F [GSK198271]" reported=8
compound="O=C(Nc1n[nH]c2nc(-c3ccc(O)cc3)ccc12)C1CC1 [SB-710363]" reported=45
compound="Nc1n[nH]c2cnc(-c3ccccc3)cc12 [SB-642124]" reported=24
compound=COc1ccc(-c2coc3ccc(-c4nnc(SCc5ccc(OC)c(C(F)(F)F)c5)o4)cc23)cc1 reported=0
compound="COc1cccc(C2=C(Nc3ccc(Cl)c(C(=O)O)c3)C(=O)NC2=O)c1 [SB-390769]" reported=32
compound="Fc1ccc(-c2ncn(C3CCNCC3)c2-c2ccnc(Oc3ccc(-c4ccccc4)cc3)n2)cc1 [SB-245391]" reported=40
compound="COc1cc(Nc2nccc(-c3c(-c4cccc(NC(=O)c5c(F)cccc5F)c4)nn4ccccc34)n2)cc(OC)c1OC [GSK323521]" reported=17
compound="Cc1ccc(F)c(C(=O)Nc2cccc(-c3nn4ccccc4c3-c3ccnc(Nc4cccc(F)c4)n3)c2)c1F [GSK361061]" reported=2
compound="CC(C)c1nc(-c2cccc(NS(=O)(=O)c3c(F)cccc3F)c2F)c(-c2ccnc(Nc3ccc(N4CCOCC4)nc3)n2)s1 [GSK2008607]" reported=0

###

Test system: MRCKA
measurement-parameters: concentration: 1 μM, replicates: in singlicate; n = 1
Label satisfied when %Inh >= 10%; otherwise not satisfied.

compound=O=C(Nc1cccc(-c2nn3ccccc3c2-c2ccnc(Nc3cccc(C(F)(F)F)c3)n2)c1)c1c(F)cccc1F class_label="not satisfied"
compound=c1ccc(-c2cnc3nccnn23)cc1 class_label="not satisfied"
compound=O=C(Nc1n[nH]c2cc(-c3ccoc3)ccc12)C1CC1 class_label="not satisfied"
compound=O=C(Nc1cccc(-c2nn3ncccc3c2-c2ccnc(Nc3ccccc3)n2)c1)c1c(F)cccc1F class_label=satisfied
compound=Nc1n[nH]c2cnc(-c3ccccc3)cc12 class_label=satisfied
compound=Cl.c1ccc(-c2ccc3c(Nc4ccc5[nH]ccc5c4)ccnc3c2)nc1 class_label="not satisfied"
compound=Cc1ccc(S(=O)(=O)Nc2ccc(Nc3nccc(Nc4cccc5[nH]ncc45)n3)cc2)cc1 class_label="not satisfied"
compound=C[C@@H](Oc1cc(-n2cnc3cc(-c4ccnc(NCCS(C)(=O)=O)c4)ccc32)sc1C(N)=O)c1ccccc1Cl class_label="not satisfied"
compound=COc1cc(Nc2nccc(-c3c(-c4cccc(NC(=O)c5c(F)cccc5F)c4)nn4ncccc34)n2)cc(OC)c1OC class_label=satisfied
compound=COc1cccc(-c2ccc3c(NC(=O)C4CC4)n[nH]c3n2)c1 class_label=satisfied
compound=CN1CCN(Cc2cccc(-c3ccc4c(Nc5ccc(Oc6ccccc6)cc5)ccnc4c3)c2)CC1 class_label="not satisfied"
compound=COc1cc(Nc2nccc(-c3c(-c4cccc(NC(=O)c5c(F)cccc5F)c4)nn4ccccc34)n2)cc(OC)c1OC class_label="not satisfied"
compound="COc1ccc(Nc2nccc(N3CCC(NC(=O)Nc4cccc(OC)c4)C3)n2)cc1 (centres unmarked)" class_label=satisfied
compound=Oc1cc(Nc2ccnc3cc(I)ccc23)ccc1F class_label="not satisfied"
compound=Fc1ccc(-c2ncn(C3CCNCC3)c2-c2ccnc(Oc3ccc(-c4ccccc4)cc3)n2)cc1 class_label=satisfied
compound=FC(F)(F)c1ccc(/C=C/c2cncnc2Nc2ccc3[nH]c(Cc4ccccc4)nc3c2)cc1 class_label=satisfied
compound=CCn1c(-c2nonc2N)nc2c(C#CC(C)(C)O)nc(OC[C@H](N)c3ccccc3)cc21 class_label="not satisfied"

###

System: MARK3
measurement-parameters: concentration: 1 μM, replicates: in singlicate; n = 1
measured-metric: %Inh (%)

smiles_repr=COc1cccc(C(=O)Nc2cccc(Oc3ccc4nc(NC(=O)C5CC5)cn4n3)c2)c1 system_under_test=MARK3 reported=0
smiles_repr=Cc1occc1-c1ncc(OC[C@@H](N)Cc2c[nH]c3ccccc23)cc1-c1ccc2[nH]nc(C)c2c1.O=C(O)C(F)(F)F system_under_test=MARK3 reported=68
smiles_repr=Cl.c1ccc(-c2ccc3c(Nc4ccc5[nH]ccc5c4)ccnc3c2)nc1 system_under_test=MARK3 reported=0
smiles_repr=Cl.NC(=O)c1cccc(Nc2nccc(Nc3ccc(Oc4c(Cl)cccc4Cl)c(Cl)c3)n2)c1 system_under_test=MARK3 reported=7
smiles_repr=FC(F)(F)c1ccc(/C=C/c2cncnc2Nc2ccc3[nH]c(Cc4ccccc4)nc3c2)cc1 system_under_test=MARK3 reported=28
smiles_repr=c1ccc(Oc2ccc(Nc3ccnc4cc(-c5ccc(CNCCN6CCOCC6)o5)ccc34)cc2)nc1 system_under_test=MARK3 reported=0
smiles_repr=Fc1ccc(-c2ncn(C3CCNCC3)c2-c2ccnc(Oc3ccc(-c4ccccc4)cc3)n2)cc1 system_under_test=MARK3 reported=23
smiles_repr=COc1cc2c(cc1OCCN1CCNCC1)ncc1c3ccc(C#N)cc3[nH]c21 system_under_test=MARK3 reported=0

###

# reported %Inh; entries follow
System: RIOK2
measurement-parameters: concentration: 1 μM, replicates: in singlicate; n = 1
measured-metric: %Inh (%)

molecule=COc1cc(Nc2nccc(-c3c(-c4cccc(NC(=O)c5c(F)cccc5F)c4)nn4ccccc34)n2)cc(OC)c1OC measured_metric=%Inh units_text=% reported=14
molecule=COc1cc(Nc2ncc3c(C)nc(-c4cc5ccccc5[nH]4)n3n2)cc(OC)c1OC measured_metric=%Inh units_text=% reported=0
molecule="COc1cc(Nc2nccc(N3CCC(NC(=O)c4cc5ccccc5s4)C3)n2)cc(OC)c1OC (stereo not shown)" measured_metric=%Inh units_text=% reported=14
molecule=Clc1ccc(-c2nn3ncccc3c2-c2ccnc(Nc3ccc4c(c3)OCCO4)n2)cc1 measured_metric=%Inh units_text=% reported=0
molecule=CCn1c(-c2nonc2N)nc2c(C#CC(C)(C)O)ncc(OCCCCN)c21.O=C(O)C(F)(F)F.O=C(O)C(F)(F)F measured_metric=%Inh units_text=% reported=0
molecule=CC(C)(C)c1ccc2nccc(Nc3cccc(O)c3)c2c1 measured_metric=%Inh units_text=% reported=0
molecule=Cn1cc(-c2[nH]c3cc(NC(=O)[C@H](N)C4CCCCC4)cc4c3c2C=NNC4=O)cn1 measured_metric=%Inh units_text=% reported=21
molecule=FC(F)(F)c1ccc(/C=C/c2cncnc2Nc2ccc3[nH]c(Cc4ccccc4)nc3c2)cc1 measured_metric=%Inh units_text=% reported=0
molecule="COc1ccc(Nc2nccc(N3CCC(NC(=O)Nc4cccc(OC)c4)C3)n2)cc1 (stereo not shown)" measured_metric=%Inh units_text=% reported=4
molecule=Cn1cc(-c2ccc3c(c2)CCN3C(=O)Cc2cccc(Cl)c2)c2c(N)ncnc21 measured_metric=%Inh units_text=% reported=19
molecule=COC(=O)Nc1nc2cc(Oc3ccc(NC(=O)Nc4cc(C(F)(F)F)ccc4F)cn3)ccc2[nH]1.Cl.Cl measured_metric=%Inh units_text=% reported=0
molecule=CSc1cccc2c(-c3ccncn3)c(-c3ccc(F)cc3)nn12 measured_metric=%Inh units_text=% reported=0
molecule=COc1cccc(-c2ccc3c(NC(=O)C4CC4)n[nH]c3n2)c1 measured_metric=%Inh units_text=% reported=0

###

System: CDK11
Construct: gene CDK19
measurement-parameters: concentration: 1 μM, replicates: in singlicate; n = 1
# reported %Inh; entries follow
measured-metric: %Inh

compound=Cc1ccc(C(=O)N2CC[C@@H](O)C2)cc1-n1c(C)cc(OCc2ccc(F)cc2F)c(Br)c1=O system_under_test=CDK11 reported=0%
compound="Cc1ccc(C)c(NC(=O)NC2CCN(c3ccnc(Nc4ccc(F)cc4)n3)C2)c1 (stereo not shown)" system_under_test=CDK11 reported=57%
compound="COc1cccc(NC(=O)NC2CCN(c3ccnc(Nc4cc(OC)c(OC)c(OC)c4)n3)C2)c1 (stereo not shown)" system_under_test=CDK11 reported=5%
compound=CCn1c(-c2nonc2N)nc2c(C#CC(C)(C)O)nc(OC[C@H](N)c3ccccc3)cc21 system_under_test=CDK11 reported=0%

###

Test system: SRPK2
measurement-parameters: concentration: 1 μM, replicates: in singlicate; n = 1
measured-metric: %Inh (%)

smiles_repr=C[C@@H](Oc1cc(-n2cnc3cc(-c4ccnc(NCCS(C)(=O)=O)c4)ccc32)sc1C(N)=O)c1ccccc1Cl system_under_test=SRPK2 measured_metric=%Inh units_text=% reported=0
smiles_repr=O=C(O)C(F)(F)F.O=C(O)C(F)(F)F.O=c1[nH]ccc2nc(N[C@@H]3CCCNC3)nc(Nc3ccc(S(=O)(=O)N4CCOCC4)cc3)c12 system_under_test=SRPK2 measured_metric=%Inh units_text=% reported=65
smiles_repr=Cn1cc(-c2[nH]c3cc(NC(=O)[C@H](N)C4CCCCC4)cc4c3c2C=NNC4=O)cn1 system_under_test=SRPK2 measured_metric=%Inh units_text=% reported=77
smiles_repr=O=C(Nc1n[nH]c2cc(-c3ccoc3)ccc12)C1CC1 system_under_test=SRPK2 measured_metric=%Inh units_text=% reported=0
smiles_repr=COc1ccc(-c2coc3ccc(-c4nnc(SCc5ccc(OC)c(C(F)(F)F)c5)o4)cc23)cc1 system_under_test=SRPK2 measured_metric=%Inh units_text=% reported=0
smiles_repr=COc1ccc(CNC(=O)NC2CCN(c3ccnc(Nc4ccc(F)cc4)n3)CC2)cc1 system_under_test=SRPK2 measured_metric=%Inh units_text=% reported=11
smiles_repr=COC(=O)Nc1nc2cc(Oc3ccc(NC(=O)Nc4cc(C(F)(F)F)ccc4F)cn3)ccc2[nH]1.Cl.Cl system_under_test=SRPK2 measured_metric=%Inh units_text=% reported=8
